molecular target: T1, His-tagged, full-length PCSK9 (human, UniProt Q8NBP7 31-692); experiment: TR-FRET competition (PCSK9/EGF(A) assay); competitor EGF(A)-Fc;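 also: proximity signal from anti-His APC on PCSK9 paired with anti-Fc europium on the Fc ligand, read as normalized TR-FRET ratio across compound dilutions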
T1 construct: secreted PCSK9 is autocatalytically cleaved into prodomain and catalytic domain + CRD (from S153), which stay associated; also called His-PCSK9; proprotein convertase subtilisin/kexin type 9; not shown: His tag
T1 sequence (Q8NBP7 31-692 limits assumed): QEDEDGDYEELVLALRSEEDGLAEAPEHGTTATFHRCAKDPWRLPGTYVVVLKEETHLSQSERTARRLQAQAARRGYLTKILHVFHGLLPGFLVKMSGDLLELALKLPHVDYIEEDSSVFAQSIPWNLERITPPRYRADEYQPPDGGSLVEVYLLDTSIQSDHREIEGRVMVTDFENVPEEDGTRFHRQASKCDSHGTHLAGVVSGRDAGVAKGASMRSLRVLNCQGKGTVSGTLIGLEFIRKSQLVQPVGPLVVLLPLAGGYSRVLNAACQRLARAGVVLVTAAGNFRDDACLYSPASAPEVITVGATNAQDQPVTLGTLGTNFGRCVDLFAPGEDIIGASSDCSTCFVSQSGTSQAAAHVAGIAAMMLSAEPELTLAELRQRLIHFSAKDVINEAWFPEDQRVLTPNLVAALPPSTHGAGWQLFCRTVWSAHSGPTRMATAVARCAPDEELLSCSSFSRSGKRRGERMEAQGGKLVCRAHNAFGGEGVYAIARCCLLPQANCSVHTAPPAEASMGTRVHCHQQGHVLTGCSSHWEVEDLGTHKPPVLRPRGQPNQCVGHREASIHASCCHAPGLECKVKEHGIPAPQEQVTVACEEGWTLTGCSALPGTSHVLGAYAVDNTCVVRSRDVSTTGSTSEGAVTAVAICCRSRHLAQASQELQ
Bridge positions count the residues as written; N and C are the ends. Square brackets hold non-standard residues; d marks the D form. Ends that are not written are not given here. Aun = NCCCCCCCCCCC(=O)O
Below: a set of entries, each annotated with reported IC50.

Worked cases, IC50 given:
Ac-GSGCWNLKRIGSQGCW-NH2 (disulfide 4-15; SMILES CC[C@H](C)[C@@H]1NC(=O)[C@H](CCCNC(=N)N)NC(=O)[C@H](CCCCN)NC(=O)[C@H](CC(C)C)NC(=O)[C@H](CC(N)=O)NC(=O)[C@H](Cc2c[nH]c3ccccc23)NC(=O)[C@@H](NC(=O)CNC(=O)[C@H](CO)NC(=O)CNC(C)=O)CSSC[C@@H](C(=O)N[C@@H](Cc2c[nH]c3ccccc23)C(N)=O)NC(=O)CNC(=O)[C@H](CCC(N)=O)NC(=O)[C@H](CO)NC(=O)CNC1=O) [Compound 40 (Ac-GSG-CWNLKRIGSQGCW-NH2)] = 5.96 µM
WCLWNLKRIGSQCWF-NH2 (disulfide 2-13; N-terminus assumed; SMILES CC[C@H](C)[C@@H]1NC(=O)[C@H](CCCNC(=N)N)NC(=O)[C@H](CCCCN)NC(=O)[C@H](CC(C)C)NC(=O)[C@H](CC(N)=O)NC(=O)[C@H](Cc2c[nH]c3ccccc23)NC(=O)[C@H](CC(C)C)NC(=O)[C@@H](NC(=O)[C@@H](N)Cc2c[nH]c3ccccc23)CSSC[C@@H](C(=O)N[C@@H](Cc2c[nH]c3ccccc23)C(=O)N[C@@H](Cc2ccccc2)C(N)=O)NC(=O)[C@H](CCC(N)=O)NC(=O)[C@H](CO)NC(=O)CNC1=O) [Compound 89 (WCLWNLKRIGSQCWF-NH2)] = 6.9 µM
Ac-CRLPWNLQR[Aun]C-NH2 (disulfide 1-11; SMILES CC(=O)N[C@H]1CSSC[C@@H](C(N)=O)NC(=O)CCCCCCCCCCNC(=O)[C@H](CCCNC(=N)N)NC(=O)[C@H](CCC(N)=O)NC(=O)[C@H](CC(C)C)NC(=O)[C@H](CC(N)=O)NC(=O)[C@H](Cc2c[nH]c3ccccc23)NC(=O)[C@@H]2CCCN2C(=O)[C@H](CC(C)C)NC(=O)[C@H](CCCNC(=N)N)NC1=O) [Compound 83 (Ac-CRLPWNLQR-(Aun)-C-NH2)] = > 50 µM

Consider the binder Ac-CRLPWNLQRIGGGC-NH2 (disulfide 1-14; SMILES CC[C@H](C)[C@@H]1NC(=O)[C@H](CCCNC(=N)N)NC(=O)[C@H](CCC(N)=O)NC(=O)[C@H](CC(C)C)NC(=O)[C@H](CC(N)=O)NC(=O)[C@H](Cc2c[nH]c3ccccc23)NC(=O)[C@@H]2CCCN2C(=O)[C@H](CC(C)C)NC(=O)[C@H](CCCNC(=N)N)NC(=O)[C@@H](NC(C)=O)CSSC[C@@H](C(N)=O)NC(=O)CNC(=O)CNC(=O)CNC1=O) [Compound 81 (Ac-CRLPWNLQRIGGGC-NH2)] and give its measured IC50.
> 50 µM

Then what about the binder Ac-C[dR]LPWNLQRIGLPC-NH2 (disulfide 1-14; SMILES CC[C@H](C)[C@@H]1NC(=O)[C@H](CCCNC(=N)N)NC(=O)[C@H](CCC(N)=O)NC(=O)[C@H](CC(C)C)NC(=O)[C@H](CC(N)=O)NC(=O)[C@H](Cc2c[nH]c3ccccc23)NC(=O)[C@@H]2CCCN2C(=O)[C@H](CC(C)C)NC(=O)[C@@H](CCCNC(=N)N)NC(=O)[C@@H](NC(C)=O)CSSC[C@@H](C(N)=O)NC(=O)[C@@H]2CCCN2C(=O)[C@H](CC(C)C)NC(=O)CNC1=O) [Compound 109 (Ac-CrLPWNLQRIGLPC-NH2)] ?
> 50 µM

Then what about the binder Ac-FCLWNLKRIGSQCEY-NH2 (disulfide 2-13; SMILES CC[C@H](C)[C@@H]1NC(=O)[C@H](CCCNC(=N)N)NC(=O)[C@H](CCCCN)NC(=O)[C@H](CC(C)C)NC(=O)[C@H](CC(N)=O)NC(=O)[C@H](Cc2c[nH]c3ccccc23)NC(=O)[C@H](CC(C)C)NC(=O)[C@@H](NC(=O)[C@H](Cc2ccccc2)NC(C)=O)CSSC[C@@H](C(=O)N[C@@H](CCC(=O)O)C(=O)N[C@@H](Cc2ccc(O)cc2)C(N)=O)NC(=O)[C@H](CCC(N)=O)NC(=O)[C@H](CO)NC(=O)CNC1=O) [Compound 95 (Ac-FCLWNLKRIGSQCEY-NH2)] ?
> 50 µM

Then what about the binder Ac-CRLPWNLQRIG[dL]PC-NH2 (disulfide 1-14; SMILES CC[C@H](C)[C@@H]1NC(=O)[C@H](CCCNC(=N)N)NC(=O)[C@H](CCC(N)=O)NC(=O)[C@H](CC(C)C)NC(=O)[C@H](CC(N)=O)NC(=O)[C@H](Cc2c[nH]c3ccccc23)NC(=O)[C@@H]2CCCN2C(=O)[C@H](CC(C)C)NC(=O)[C@H](CCCNC(=N)N)NC(=O)[C@@H](NC(C)=O)CSSC[C@@H](C(N)=O)NC(=O)[C@@H]2CCCN2C(=O)[C@@H](CC(C)C)NC(=O)CNC1=O) [Compound 100 (Ac-CRLPWNLQRIGlPC-NH2)] ?
> 50 µM

Then what about the binder Ac-CRLPWNLQRIGAPC-NH2 (disulfide 1-14; SMILES CC[C@H](C)[C@@H]1NC(=O)[C@H](CCCNC(=N)N)NC(=O)[C@H](CCC(N)=O)NC(=O)[C@H](CC(C)C)NC(=O)[C@H](CC(N)=O)NC(=O)[C@H](Cc2c[nH]c3ccccc23)NC(=O)[C@@H]2CCCN2C(=O)[C@H](CC(C)C)NC(=O)[C@H](CCCNC(=N)N)NC(=O)[C@@H](NC(C)=O)CSSC[C@@H](C(N)=O)NC(=O)[C@@H]2CCCN2C(=O)[C@H](C)NC(=O)CNC1=O) [Compound 69 (Ac-CRLPWNLQRIGAPC-NH2)] ?
> 50 µM
